experiment: Enzymatic bioconversion in mouse serum; type: in vitro ADME; settings: after 5 h incubation, 37 °C, mean ± SD, n = 3
experimental endpoint: Enzymatic stability, remaining percentage, mouse serum (%)

I: CC(C(=O)Oc1c(I)cc(C[C@H](N)C(=O)O)cc1I)c1ccc(-c2ccccc2)c(F)c1 (mixture of isomers) [Prodrug 7]
II: N[C@@H](Cc1cc(I)c(OC(=O)c2ccccc2O)c(I)c1)C(=O)O [Prodrug 3]
Which entry shows the lesser value of Enzymatic stability, remaining percentage, mouse serum here, I or II ? Provide the label of your selected option as the answer.
II
(II: 14.40%, I: 94.89%)

###

assay: Enzymatic bioconversion in human liver S9 fraction; assay type: in vitro ADME; conditions: human, pH 7.4; liver S9 fraction, 37 °C, mean ± SD, n = 3; read-out: Enzymatic bioconversion half-life t1/2, human liver
experimental endpoint: half-life at 100 µM (h)
Give just the number in h; leave the unit off.

Complete the entry with half-life at 100 µM for CC(C(=O)Oc1c(I)cc(C[C@H](N)C(=O)O)cc1I)c1ccc(-c2ccccc2)c(F)c1 (mixture of isomers) [Prodrug 7]
2.91

###

assay: Enzymatic bioconversion in mouse liver S9 fraction; assay type: in vitro ADME; details: after 5 h incubation, 100 μM prodrug, 37 °C, mean ± SD, n = 3
experimental endpoint: Enzymatic stability, remaining percentage, mouse liver S9 (%)

1: N[C@@H](Cc1cc(I)c(Oc2cc(I)c(OC(=O)c3ccccc3O)c(I)c2)c(I)c1)C(=O)O [Prodrug 4]
2: COc1ccc2cc([C@H](C)C(=O)Oc3c(I)cc(C[C@H](N)C(=O)O)cc3I)ccc2c1 [Prodrug 5]
3: CC(C(=O)Oc1c(I)cc(C[C@H](N)C(=O)O)cc1I)c1ccc(-c2ccccc2)c(F)c1 (mixture of isomers) [Prodrug 7]
// TODO: order the 3 compounds above by Enzymatic stability, remaining percentage, mouse liver S9, descending Answer format: the labels, ordered as requested.
1, 2, 3

###

test: Enzymatic bioconversion in mouse primary astrocyte–microglia homogenate; format: in vitro ADME; conditions: after 5 h incubation, 100 μM prodrug, 37 °C, mean ± SD, n = 3
experimental endpoint: Enzymatic stability, remaining percentage, mouse brain cell homogenate (%)

Report Enzymatic stability, remaining percentage, mouse brain cell homogenate for COc1ccc2cc([C@H](C)C(=O)Oc3c(I)cc(C[C@H](N)C(=O)O)cc3I)ccc2c1 [Prodrug 5]
92.98

Please supply the value of reported Enzymatic stability, remaining percentage, mouse brain cell homogenate for the item N[C@@H](Cc1cc(I)c(OC(=O)c2ccccc2O)c(I)c1)C(=O)O [Prodrug 3]
95.26

Answer with the recorded Enzymatic stability, remaining percentage, mouse brain cell homogenate for the compound listed here: CC(C(=O)Oc1c(I)cc(Oc2c(I)cc(C[C@H](N)C(=O)O)cc2I)cc1I)c1cccc(C(=O)c2ccccc2)c1 (mixture of isomers) [Prodrug 2]
96.01

Fill in Enzymatic stability, remaining percentage, mouse brain cell homogenate for record N[C@@H](Cc1cc(I)c(Oc2cc(I)c(OC(=O)c3ccccc3O)c(I)c2)c(I)c1)C(=O)O [Prodrug 4]
91.38

Name the recorded Enzymatic stability, remaining percentage, mouse brain cell homogenate of the compound listed here: COc1ccc2cc([C@H](C)C(=O)Oc3c(I)cc(Oc4c(I)cc(C[C@H](N)C(=O)O)cc4I)cc3I)ccc2c1 [Prodrug 6]
95.18

Give the reported Enzymatic stability, remaining percentage, mouse brain cell homogenate for this compound. CC(C(=O)Oc1c(I)cc(Oc2c(I)cc(C[C@H](N)C(=O)O)cc2I)cc1I)c1ccc(-c2ccccc2)c(F)c1 (mixture of isomers) [Prodrug 8]
97.94

# return recorded Enzymatic stability, remaining percentage, mouse brain cell homogenate for entry CC(C(=O)Oc1c(I)cc(C[C@H](N)C(=O)O)cc1I)c1cccc(C(=O)c2ccccc2)c1 (mixture of isomers) [Prodrug 1]
85.76

Check the records and state Enzymatic stability, remaining percentage, mouse brain cell homogenate for CC(C(=O)Oc1c(I)cc(C[C@H](N)C(=O)O)cc1I)c1ccc(-c2ccccc2)c(F)c1 (mixture of isomers) [Prodrug 7]
92.68

###

assay: Enzymatic bioconversion in human plasma; format: in vitro ADME; conditions: after 5 h incubation, 37 °C, mean ± SD, n = 3
experimental endpoint: Enzymatic stability, remaining percentage, human plasma (%)

Entry CC(C(=O)Oc1c(I)cc(C[C@H](N)C(=O)O)cc1I)c1cccc(C(=O)c2ccccc2)c1 (mixture of isomers) [Prodrug 1] needs its Enzymatic stability, remaining percentage, human plasma filled in; supply it.
92.01

Identify Enzymatic stability, remaining percentage, human plasma associated with the compound CC(C(=O)Oc1c(I)cc(Oc2c(I)cc(C[C@H](N)C(=O)O)cc2I)cc1I)c1cccc(C(=O)c2ccccc2)c1 (mixture of isomers) [Prodrug 2]
96.47

For the compound N[C@@H](Cc1cc(I)c(Oc2cc(I)c(OC(=O)c3ccccc3O)c(I)c2)c(I)c1)C(=O)O [Prodrug 4] , report Enzymatic stability, remaining percentage, human plasma.
97.17

Answer with reported Enzymatic stability, remaining percentage, human plasma of COc1ccc2cc([C@H](C)C(=O)Oc3c(I)cc(Oc4c(I)cc(C[C@H](N)C(=O)O)cc4I)cc3I)ccc2c1 [Prodrug 6]
96.32

Please indicate Enzymatic stability, remaining percentage, human plasma recorded for CC(C(=O)Oc1c(I)cc(Oc2c(I)cc(C[C@H](N)C(=O)O)cc2I)cc1I)c1ccc(-c2ccccc2)c(F)c1 (mixture of isomers) [Prodrug 8]
97.17

Please report the measured Enzymatic stability, remaining percentage, human plasma for N[C@@H](Cc1cc(I)c(OC(=O)c2ccccc2O)c(I)c1)C(=O)O [Prodrug 3]
68.94

Provide Enzymatic stability, remaining percentage, human plasma value for the following compound: COc1ccc2cc([C@H](C)C(=O)Oc3c(I)cc(C[C@H](N)C(=O)O)cc3I)ccc2c1 [Prodrug 5]
70.94

Input CC(C(=O)Oc1c(I)cc(C[C@H](N)C(=O)O)cc1I)c1ccc(-c2ccccc2)c(F)c1 (mixture of isomers) [Prodrug 7] , output reported Enzymatic stability, remaining percentage, human plasma.
90.52

###

Biological target: OATP1C1 (Homo sapiens)
Construct: human U-87MG cells that expressed OATP1C1, but not other OATPs; endogenous in cells; host or cells: U-87MG human glioma cells
Sequence (Q9NYB5 1-712): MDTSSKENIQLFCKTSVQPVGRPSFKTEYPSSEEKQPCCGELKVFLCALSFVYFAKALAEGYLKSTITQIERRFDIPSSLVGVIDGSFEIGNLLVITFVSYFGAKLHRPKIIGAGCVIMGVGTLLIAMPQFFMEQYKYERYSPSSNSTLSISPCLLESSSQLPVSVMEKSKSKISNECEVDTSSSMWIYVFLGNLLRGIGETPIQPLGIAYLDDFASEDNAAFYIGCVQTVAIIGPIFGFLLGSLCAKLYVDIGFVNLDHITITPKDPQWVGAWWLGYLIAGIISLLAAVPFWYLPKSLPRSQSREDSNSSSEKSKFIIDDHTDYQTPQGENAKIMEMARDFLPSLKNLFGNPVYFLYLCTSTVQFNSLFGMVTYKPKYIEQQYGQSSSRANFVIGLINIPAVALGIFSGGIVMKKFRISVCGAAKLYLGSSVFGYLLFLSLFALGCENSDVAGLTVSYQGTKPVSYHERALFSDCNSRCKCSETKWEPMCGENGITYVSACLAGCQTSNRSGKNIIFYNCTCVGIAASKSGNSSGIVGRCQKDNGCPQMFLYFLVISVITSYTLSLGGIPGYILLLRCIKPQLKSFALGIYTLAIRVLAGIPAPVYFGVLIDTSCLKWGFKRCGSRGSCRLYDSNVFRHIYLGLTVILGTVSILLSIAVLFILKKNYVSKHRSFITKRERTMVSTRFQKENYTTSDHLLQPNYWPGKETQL
Experiment: Competitive uptake into U-87MG cells in the presence of OATP1C1 inhibitors diclofenac and flufenamic acid
Type: cell-based
Settings: 100 μM prodrug, 100 μM inhibitor, result in words
experimental endpoint: Cellular uptake in the presence of OATP1C1 inhibitors (DCF and FFA)

Please look at this compound and report its Cellular uptake in the presence of OATP1C1 inhibitors (DCF and FFA): CC(C(=O)Oc1c(I)cc(Oc2c(I)cc(C[C@H](N)C(=O)O)cc2I)cc1I)c1ccc(-c2ccccc2)c(F)c1 (mixture of isomers) [Prodrug 8]
significantly reduced

Output Cellular uptake in the presence of OATP1C1 inhibitors (DCF and FFA) of CC(C(=O)Oc1c(I)cc(C[C@H](N)C(=O)O)cc1I)c1ccc(-c2ccccc2)c(F)c1 (mixture of isomers) [Prodrug 7]
significantly reduced

###

experiment: Enzymatic bioconversion in human liver S9 fraction; format: in vitro ADME; details: after 5 h incubation, 100 μM prodrug, 37 °C, mean ± SD, n = 3
experimental endpoint: Enzymatic stability, remaining percentage, human liver S9 (%)

Please indicate Enzymatic stability, remaining percentage, human liver S9 recorded for CC(C(=O)Oc1c(I)cc(C[C@H](N)C(=O)O)cc1I)c1cccc(C(=O)c2ccccc2)c1 (mixture of isomers) [Prodrug 1]
78.13

1: CC(C(=O)Oc1c(I)cc(Oc2c(I)cc(C[C@H](N)C(=O)O)cc2I)cc1I)c1ccc(-c2ccccc2)c(F)c1 (mixture of isomers) [Prodrug 8]
2: CC(C(=O)Oc1c(I)cc(C[C@H](N)C(=O)O)cc1I)c1ccc(-c2ccccc2)c(F)c1 (mixture of isomers) [Prodrug 7]
Hi, I'm comparing two records. Which one has the lower Enzymatic stability, remaining percentage, human liver S9, 1 or 2 ? Lab log: write the label of the selected item as the result.
2
(2: 30.54%, 1: 80.17%)
